Recorded Percent Effect for the following compounds
test system: Aspartate--tRNA(Asp/Asn) ligase (Mycobacterium tuberculosis (strain ATCC 25618 / H37Rv)) (UniProt P9WFW3)
Sequence (whole entry): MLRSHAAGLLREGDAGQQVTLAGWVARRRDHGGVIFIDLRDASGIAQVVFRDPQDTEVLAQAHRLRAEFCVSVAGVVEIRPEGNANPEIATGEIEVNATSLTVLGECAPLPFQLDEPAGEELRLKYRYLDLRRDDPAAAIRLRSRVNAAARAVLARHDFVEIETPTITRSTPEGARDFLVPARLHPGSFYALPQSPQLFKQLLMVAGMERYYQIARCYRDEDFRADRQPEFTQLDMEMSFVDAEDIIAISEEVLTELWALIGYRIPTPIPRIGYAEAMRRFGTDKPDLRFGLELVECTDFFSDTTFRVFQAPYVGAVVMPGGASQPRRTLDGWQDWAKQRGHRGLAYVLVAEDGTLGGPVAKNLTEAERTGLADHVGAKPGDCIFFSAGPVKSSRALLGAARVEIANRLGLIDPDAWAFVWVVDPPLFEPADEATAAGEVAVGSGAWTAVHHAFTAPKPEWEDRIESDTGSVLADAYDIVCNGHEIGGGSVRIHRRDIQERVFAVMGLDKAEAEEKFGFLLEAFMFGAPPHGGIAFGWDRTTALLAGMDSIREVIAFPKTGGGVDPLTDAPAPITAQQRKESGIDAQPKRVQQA
protocol: Assay for Asp RNA synthetase-1 from Mycobacterium tuberculosis
Type: functional
Set-up: scale not given: in the data most compounds retested in dose-response had high values
cond: 30 µM
# answer = value followed by unit

- compound: "Cc1[nH]ccc1C(=O)N1CCC(c2nnc(Cn3cccn3)n2C)CC1"
  Percent Effect: "-2.14%"

Lookup: Item under review: Cc1nc(CN2CCCC(Cn3cc(CCO)nn3)C2)c[nH]1 (centres undefined) . Reported Percent Effect?
Found: 0.881%

Lookup: Item under review: CCCOCC(=O)NC1CCc2nc(C)cn2C1 (centres undefined) . Reported Percent Effect?
Found: 1.62%

Lookup: Item under review: "Cc1cc(S(=O)(=O)N2CCCc3cc(F)cc(F)c32)sc1C(=O)O" . Reported Percent Effect?
Found: -0.908%

Lookup: Item under review: "CN(C)C(=O)CO[C@@H]1CC[C@H]2[C@H]1OCCN2C(=O)C1CCOCC1" . Reported Percent Effect?
Found: -1.59%

Lookup: Item under review: "CCn1cc(N2Cc3nc(N4CCOCC4)ncc3C2=O)cn1" . Reported Percent Effect?
Found: -3.92%
